Values from patent US6875761B2

Target: serotonin 1A receptor (Rattus norvegicus, UniProt P19327)
Construct: To the receptor fraction of the hippocampus were added a test compound and 0.5 nM of [^3H]; 8-hydroxy-dipropylaminotetralin; from tissue; host or cells: rat hippocampus membrane fraction
Sequence (P19327 1-422): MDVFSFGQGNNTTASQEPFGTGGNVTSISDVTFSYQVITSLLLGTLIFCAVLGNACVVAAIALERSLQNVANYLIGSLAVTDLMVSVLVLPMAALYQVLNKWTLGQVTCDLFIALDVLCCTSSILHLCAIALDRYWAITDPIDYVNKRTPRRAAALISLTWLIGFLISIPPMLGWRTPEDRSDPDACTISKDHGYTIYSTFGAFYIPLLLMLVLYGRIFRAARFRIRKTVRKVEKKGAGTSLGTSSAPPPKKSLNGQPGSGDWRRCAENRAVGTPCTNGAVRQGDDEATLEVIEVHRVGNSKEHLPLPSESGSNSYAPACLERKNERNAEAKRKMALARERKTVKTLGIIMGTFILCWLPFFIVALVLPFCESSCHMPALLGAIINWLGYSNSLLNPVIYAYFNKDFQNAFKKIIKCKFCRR
Assay: Binding test on [3H] 8-hydroxy-dipropylaminotetralin, hippocampus receptor fraction
Parameters: species or system SD rats
Settings: rat hippocampus receptor fraction, 0.5 nM [3H] 8-OH-DPAT, room temperature 30 min; read-out: 5HT1
Counter-ions that a name gives are not always drawn.
Kindly state Ki for each of the entries shown.
Answers are plain numbers, in nM.

CCC/C(=N\O)c1ccc(-c2cc3ccccc3c(N3CCN(CC)CC3)n2)cc1 [Example 380] ... 31.2
CCN1CCN(c2nc(-c3ccc4c(c3)CC(C)(CO)O4)cc3ccsc23)CC1 (centres unmarked) [Example 456, dihydrochloride] ... 63.3
CCC(O)c1ncc(-c2cc3ccccc3c(N3CCN(CC)CC3)n2)s1 (centres unmarked) [Example 170, dihydrochloride] ... 3

Quick batch: Ki for everything below.
1. CCN1CCN(c2nc(/C=C/c3ccc(CS(C)(=O)=O)cc3)cc3ccccc23)CC1 [Example 203, Oxalate]
2. CCN1CCN(c2nc(-c3ccc(N4CCOCC4)cn3)cc3ccccc23)CC1 [Example 148, trihydrochloride]
3. CN1CCN(c2nc(-c3ccc(OCCO)cc3)cc3ccccc23)CC1 [Example 3]
4. CCN1CCN(c2nc(-c3ccc(OCCO)cc3)cc3ccoc23)CC1 [Example 301, oxalate]
5. CCCNS(=O)(=O)c1ccc(-c2cc3ccccc3c(N3CCN(CC)CC3)n2)cc1 [Example 353, dihydrochloride]

## Result
[5.5, 6.33, 65, 9.15, 1.1]

====

Kindly state pKi for each of the entries shown.
Target: serotonin 1A receptor (Rattus norvegicus, UniProt P19327)
Construct: To the receptor fraction of the hippocampus were added a test compound and 0.5 nM of [^3H]; 8-hydroxy-dipropylaminotetralin; from tissue; host or cells: rat hippocampus membrane fraction
Assay: Binding test on [3H] 8-hydroxy-dipropylaminotetralin, hippocampus receptor fraction
Design: species or system SD rats
Details: rat hippocampus receptor fraction, 0.5 nM [3H] 8-OH-DPAT, room temperature 30 min; read-out: 5HT1
Structures can show the parent of a compound that is named as a salt.
Answers are plain numbers, as −log10 of the molar value.

Quick batch: pKi for everything below.
1. CCCS(=O)(=O)c1ccc(-c2cc3ccccc3c(N3CCN(CC)CC3)n2)cc1 [Example 349, dihydrochloride]
2. CCN1CCN(c2nc(-c3ccc(CCO)s3)cc3ccccc23)CC1 [Example 163, dihydrochloride]
3. CCN1CCN(c2nc(-c3ccc(O[C@@H](C)CO)cc3)cc3ccccc23)CC1 [Example 404, Dihydrochloride]
4. CCN1CCN(c2nc(-c3cc(OC)c(OC)cc3OC)cc3ccccc23)CC1.Cl [Example 16, dihydrochloride]

## Result
8.49
7.60
7.73
7.52
